FYI, the data here is from paper PMC9090415.

Each entry below carries its reported % inhibition Apo pol 5'.
TARGET_UNDER_TEST: UniProtKB Q8ILY1
METHOD: Fluorescence-based high-throughput DNA polymerase assay (molecular beacon), primary screen and dose-response
Type: biochemical
PROTOCOL_CONDITIONS: DRC-2; concentration 5; 5'
Please give a number only; it is taken to be in %.

Input "O=[N+]([O-])c1ccc(SCc2ccco2)c2cccnc12" , output reported % inhibition Apo pol 5'.
33

Input "CCc1ccccc1NC(=O)c1ccc(-c2ncccc2NC(C)=O)cc1" , output reported % inhibition Apo pol 5'.
5.51

Input CCOc1ccc2cc(C3=NN(C(=O)CCC(=O)O)C(c4ccc(C)cc4)C3)c(=O)[nH]c2c1 (stereo not drawn) , output reported % inhibition Apo pol 5'.
4.72

Input "Cc1cc(C)nc(Nc2nc(CC(=O)Nc3nc(-c4ccco4)cs3)cs2)n1" , output reported % inhibition Apo pol 5'.
6

---

Each entry below carries its reported % inhibition Apo pol 5'.
TARGET_UNDER_TEST: P. falciparum apicoplast DNA polymerase (Pf-apPOL) (Plasmodium falciparum, UniProt Q8ILY1)
Sequence (Q8ILY1 entry or part of it): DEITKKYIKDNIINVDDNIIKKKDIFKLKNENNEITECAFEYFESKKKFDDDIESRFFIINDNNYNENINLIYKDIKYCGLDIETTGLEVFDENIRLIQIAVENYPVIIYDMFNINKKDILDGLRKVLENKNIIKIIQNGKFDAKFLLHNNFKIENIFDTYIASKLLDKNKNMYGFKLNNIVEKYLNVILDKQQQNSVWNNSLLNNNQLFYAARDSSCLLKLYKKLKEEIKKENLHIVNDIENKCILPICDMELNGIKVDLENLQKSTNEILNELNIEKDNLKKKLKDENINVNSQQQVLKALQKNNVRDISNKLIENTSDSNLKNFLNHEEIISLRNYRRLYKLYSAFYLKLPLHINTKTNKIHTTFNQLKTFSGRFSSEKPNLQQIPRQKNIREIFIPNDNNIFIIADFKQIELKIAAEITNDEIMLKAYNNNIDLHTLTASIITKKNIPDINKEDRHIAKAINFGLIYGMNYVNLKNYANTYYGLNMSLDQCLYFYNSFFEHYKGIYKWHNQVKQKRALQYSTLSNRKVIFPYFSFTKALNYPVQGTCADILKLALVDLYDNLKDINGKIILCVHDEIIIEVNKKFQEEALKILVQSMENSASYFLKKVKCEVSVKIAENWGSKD
METHOD: Fluorescence-based high-throughput DNA polymerase assay (molecular beacon), primary screen and dose-response
Type: biochemical
PROTOCOL_CONDITIONS: DRC-2; concentration 10; 5'
Please give a number only; it is taken to be in %.

Solved entries:
compound="O=[N+]([O-])c1ccc(SCc2ccco2)c2cccnc12 [KU0034480]" outcome_measure="% inhibition Apo pol 5'" numeric_readout=38
compound="Cc1ccc(C2=N/C(=C\\c3ccc(I)o3)C(=O)O2)cc1[N+](=O)[O-] [KU0073890]" outcome_measure="% inhibition Apo pol 5'" numeric_readout=44

Input O=C(O)c1nc(-c2ccccc2)nc2c1OCO2 [Molecule 45, OC(=O)c1nc(nc2c1OCO2)c1ccccc1] , output reported % inhibition Apo pol 5'.
42

Input CCOc1ccc2cc(C3=NN(C(=O)CCC(=O)O)C(c4ccc(C)cc4)C3)c(=O)[nH]c2c1 (stereo not drawn) [KU0056200] , output reported % inhibition Apo pol 5'.
23

Input O=C(O)c1cc([N+](=O)[O-])c(N2CCN(c3cccc(C(F)(F)F)c3)CC2)c([N+](=O)[O-])c1 [KU0076747] , output reported % inhibition Apo pol 5'.
10

Input Oc1cccnc1/N=C/c1cc(I)cc(I)c1O [KU0073720] , output reported % inhibition Apo pol 5'.
51

Input O=C(Cc1cccs1)N1CCN(c2nc(CN3CCOCC3)cs2)CC1 [Molecule 35] , output reported % inhibition Apo pol 5'.
35

Input COc1ccc(-c2occ(C(=O)O)c2C(=O)O)cc1 [KU0021536] , output reported % inhibition Apo pol 5'.
34

Input COc1cc(/C=C2\C(=O)N(c3ccc(C(=O)O)cc3)N=C2C(F)(F)F)ccc1OCC(C)C [KU0069072] , output reported % inhibition Apo pol 5'.
24

---

TARGET_UNDER_TEST: bacteriophage T4 DNA polymerase (Enterobacteria phage T4)
Construct: made in house
Sequence (P04415 whole entry): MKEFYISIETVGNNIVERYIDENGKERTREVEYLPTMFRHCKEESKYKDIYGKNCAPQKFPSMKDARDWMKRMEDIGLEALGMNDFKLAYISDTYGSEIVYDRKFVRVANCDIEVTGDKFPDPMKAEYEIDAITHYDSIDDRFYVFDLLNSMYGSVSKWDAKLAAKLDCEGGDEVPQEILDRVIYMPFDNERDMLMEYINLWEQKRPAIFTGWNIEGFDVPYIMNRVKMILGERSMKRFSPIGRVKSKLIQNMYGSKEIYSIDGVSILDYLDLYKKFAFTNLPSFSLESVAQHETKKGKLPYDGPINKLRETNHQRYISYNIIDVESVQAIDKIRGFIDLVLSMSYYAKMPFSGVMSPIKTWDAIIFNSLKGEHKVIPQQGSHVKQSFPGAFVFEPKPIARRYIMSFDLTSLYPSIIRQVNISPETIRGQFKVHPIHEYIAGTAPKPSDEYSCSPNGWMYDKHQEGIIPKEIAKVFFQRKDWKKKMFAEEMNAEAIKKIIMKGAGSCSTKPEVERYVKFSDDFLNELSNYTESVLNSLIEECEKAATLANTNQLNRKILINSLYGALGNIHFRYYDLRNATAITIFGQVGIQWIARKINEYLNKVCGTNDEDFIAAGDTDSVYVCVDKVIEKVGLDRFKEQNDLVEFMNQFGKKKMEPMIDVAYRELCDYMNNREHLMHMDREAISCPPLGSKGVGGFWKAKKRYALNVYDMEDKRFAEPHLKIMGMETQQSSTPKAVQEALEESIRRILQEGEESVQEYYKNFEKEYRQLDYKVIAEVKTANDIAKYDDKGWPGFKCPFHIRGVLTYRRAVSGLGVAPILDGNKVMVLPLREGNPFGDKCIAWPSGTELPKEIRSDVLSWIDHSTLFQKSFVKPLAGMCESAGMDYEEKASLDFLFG
METHOD: Counter-screen against bacteriophage T4 DNA polymerase
Assay type: biochemical
PROTOCOL_CONDITIONS: DRC-1; read at 10'; concentration 80
Method: Codon-optimized, exonuclease-deficient Pf-apPOL was overexpressed in E. coli BL21 (DE3) and purified as described. The protein was dialysed against two, 1-liter changes of 20 mM Tris-HCl (pH 8.0), 400 mM NaCl, and 20% glycerol. […] Each compound was tested in a dose-response format to determine IC50 values. […] T4 DNA polymerase can be produced in large quantities, and is in the same family (B-family) as the replicative human DNA polymerases (α, δ, and ε)[20].
OUTCOME_MEASURE: % inhibition T4 10' 80 (%)
Please give a number only; it is taken to be in %.

Solved entries:
compound="COc1ccccc1CC(=O)N1CCc2c(nc3cc(-c4ccccc4Cl)[nH]n3c2=O)C1 [Molecule 49]" outcome_measure="% inhibition T4 10' 80" unit_spec=% numeric_readout=-3
compound="O=C(CCc1csc(NC(=O)Nc2ccccc2)n1)Nc1nc2ccccc2s1 [KU0177354]" outcome_measure="% inhibition T4 10' 80" unit_spec=% numeric_readout=35.4647
compound="C#CC(C=CC)OC(=O)c1ccccc1C(=O)O (centres unmarked) [Molecule 61, CC=CC(OC(=O)c1ccccc1C(=O)O)C#C]" outcome_measure="% inhibition T4 10' 80" unit_spec=% numeric_readout=28.2741
compound="N#Cc1c(O)nc(N2CCCCC2)nc1-c1ccc2c(c1)OCO2 [KU0083146]" outcome_measure="% inhibition T4 10' 80" unit_spec=% numeric_readout=27.8578

Input COc1ccc(/C=C/c2cc(C(=O)O)c3ccccc3n2)cc1 [Molecule 5, COc1ccc(cc1)/C=C/c1nc2ccccc2c(c1)C(=O)O] , output reported % inhibition T4 10' 80.
5.54

Input Nc1cc(Oc2ccc(O)c(N)c2)ccc1O [KU0034728] , output reported % inhibition T4 10' 80.
21.8837

Input COc1ccc(C2CC(c3ccc(Cl)cc3Cl)Nc3nc(N)nn32)cc1OC (centres unmarked) [Molecule 43] , output reported % inhibition T4 10' 80.
12

---

TARGET_UNDER_TEST: P. falciparum apicoplast DNA polymerase (Pf-apPOL) (Plasmodium falciparum)
METHOD: Fluorescence-based high-throughput DNA polymerase assay (molecular beacon), primary screen and dose-response
Assay type: biochemical
PROTOCOL_CONDITIONS: DRC-1; 10'; concentration 20
OUTCOME_MEASURE: % inhibition Apo pol 10' (%)
Please give a number only; it is taken to be in %.

molecule=O=C(O)C(=O)Nc1nc(-c2ccc3c(c2)OCCO3)cs1 numeric_readout=39.5068

Input "CN(C)S(=O)(=O)Oc1ccc(-c2noc(-c3ccc(Oc4cc(Cl)cc(Cl)c4)o3)n2)cc1" , output reported % inhibition Apo pol 10'.
66.3992

Input "O=C(O)CC1=NN(c2cccc([N+](=O)[O-])c2)C(=O)C1" , output reported % inhibition Apo pol 10'.
68.5645

Input "CN1CC(=Cc2ccco2)C(=O)C(=Cc2ccco2)C1" , output reported % inhibition Apo pol 10'.
60.4298

Input "CCCCc1ccc(NC(=O)CSc2nc(O)c(C#N)c(C3CCCCC3)n2)c(C)c1" , output reported % inhibition Apo pol 10'.
77.3201

Input "CS(=O)(=O)c1cccc(C(=O)Nc2nnc(-c3ccno3)o2)c1" , output reported % inhibition Apo pol 10'.
44.3674

---

TARGET_UNDER_TEST: UniProtKB Q8ILY1
METHOD: Fluorescence-based high-throughput DNA polymerase assay (molecular beacon), primary screen and dose-response
Assay type: biochemical
PROTOCOL_CONDITIONS: DRC-2, 90', concentration 5
Each entry below carries its reported % inhibition ApPOL 90'.
Please give a number only; it is taken to be in %.

compound="CC1=NNC(=O)C1Oc1ccc(Cl)cc1Cl (centres unmarked)" outcome_measure="% inhibition ApPOL 90'" unit_spec=% numeric_readout=-0.164
compound=COc1ccc(C(=O)Nc2cccc(-c3nc4ncccc4o3)c2)cc1[N+](=O)[O-] outcome_measure="% inhibition ApPOL 90'" unit_spec=% numeric_readout=10
compound="CCOC(=O)C(NCc1ccco1)(NC(=O)c1ccco1)C(F)(F)F (centres unmarked)" outcome_measure="% inhibition ApPOL 90'" unit_spec=% numeric_readout=0
compound="CCOc1ccccc1-c1nc(-c2ccc(=O)[nH]c2)no1 [Molecule 76, CCOc1ccccc1c1onc(n1)c1ccc(=O)[nH]c1]" outcome_measure="% inhibition ApPOL 90'" unit_spec=% numeric_readout=5
compound=CN(C)C=CC(=O)c1ccccn1 outcome_measure="% inhibition ApPOL 90'" unit_spec=% numeric_readout=7

Attention now turns to another entry.
Input "O=C(Nc1ncc([N+](=O)[O-])s1)c1ccc2c(c1)C(=O)N(N1C(=O)c3ccccc3C1=O)C2=O" , output reported % inhibition ApPOL 90'.
9

---

TARGET_UNDER_TEST: P. falciparum apicoplast DNA polymerase (Pf-apPOL) (Plasmodium falciparum)
METHOD: Fluorescence-based high-throughput DNA polymerase assay (molecular beacon), primary screen and dose-response
Type: biochemical
PROTOCOL_CONDITIONS: primary screen value, 'DNA Pol' only; 90 min, 10 µM
OUTCOME_MEASURE: DNA Pol
Reply: number alone, nothing else.

Solved entries:
structure_as_smiles=COc1ccc(C(=O)Nc2cccc(-c3nc4ncccc4o3)c2)cc1[N+](=O)[O-] outcome_measure="DNA Pol" numeric_readout=31
structure_as_smiles=O=c1cc(-c2ccccc2)oc2c(O)c(O)ccc12 outcome_measure="DNA Pol" numeric_readout=55
structure_as_smiles=O=C(O)c1c(F)c(F)c(-c2c(F)c(F)c(C(=O)O)c(F)c2F)c(F)c1F outcome_measure="DNA Pol" numeric_readout=36
structure_as_smiles=O=C(O)C(=O)Nc1nc(-c2ccc3c(c2)OCCO3)cs1 outcome_measure="DNA Pol" numeric_readout=43
structure_as_smiles=O=C(Nc1nnc(-c2ccno2)o1)c1ccc2c(c1)OCO2 outcome_measure="DNA Pol" numeric_readout=40

Input "Cn1nc(C(=O)N2CCc3c(nc4cc(-c5ccccc5)[nH]n4c3=O)C2)c2ccccc21" , output reported DNA Pol.
46
